Where a SMILES comes first, the peptide text is derived from it. Bridges are numbered along the chain shown (N, C = ends). [ ]: non-standard residue; d: D form. The star is where a group is joined. Ileψ(thiazoline)Cys = CC[C@H](C)[C@H](N)C1=N[C@H](C(=O)*)CS1; dOrn = NCCC[C@@H](N)C(=O)O
As a worked illustration, we turn to HepSE_hepatitis data collected for Hepatotoxicity.
metric: HepSE_hepatitis

* O=C(O)CCCc1ccc(N(CCCl)CCCl)cc1 [CHLORAMBUCIL] | 0
* Cc1nccn1CC1CCc2c(c3ccccc3n2C)C1=O (stereo not drawn) [ONDANSETRON] | 0
* NS(=O)(=O)c1cc2c(cc1Cl)N=CNS2(=O)=O [CHLOROTHIAZIDE] | 0
* CCOC(=O)O[C@]1(C(=O)COC(=O)CC)CC[C@H]2[C@@H]3CCC4=CC(=O)C=C[C@]4(C)[C@H]3[C@@H](O)C[C@@]21C [PREDNICARBATE] | 0
* CC1=C(CC(=O)O)c2cc(F)ccc2/C1=C\c1ccc([S+](C)[O-])cc1 (stereo not drawn) | 1
* CC[C@H](C)[C@H](N)C1=N[C@H](C(=O)N[C@@H](CC(C)C)C(=O)N[C@H](CCC(=O)O)C(=O)N[C@H](C(=O)N[C@H]2CCCCNC(=O)[C@H](CC(N)=O)NC(=O)[C@@H](CC(=O)O)NC(=O)[C@H](Cc3cnc[nH]3)NC(=O)[C@@H](Cc3ccccc3)NC(=O)[C@H]([C@@H](C)CC)NC(=O)[C@@H](CCCN)NC2=O)[C@@H](C)CC)CS1 [BACITRACIN] ({Ileψ(thiazoline)Cys}-L[dE]IK[dOrn]I[dF]H[dD]N; lactam 4-C) | 0
* CCCCCCCN(CC)CCCC(O)c1ccc(NS(C)(=O)=O)cc1 (stereo not drawn) [IBUTILIDE] | 0
* CC(C)(C)NC[C@H](O)COc1cccc2c1CCCC2=O [LEVOBUNOLOL] | 0
* NC[C@H](O)c1ccc(O)c(O)c1 [NOREPINEPHRINE] | 0
* CC(C)OC(=O)CCC/C=C\C[C@@H]1[C@@H](CC[C@@H](O)CCc2ccccc2)[C@H](O)C[C@@H]1O [LATANOPROST] | 0
* COc1cccc2c1C(=O)c1c(O)c3c(c(O)c1C2=O)C[C@@](O)(C(=O)CO)C[C@@H]3O[C@H]1C[C@H](N)[C@H](O)[C@H](C)O1 [DOXORUBICIN] | 1
* COc1cc(CC2c3c(cc(OC)c(OC)c3OC)CC[N+]2(C)CCCOC(=O)CCC(=O)OCCC[N+]2(C)CCc3cc(OC)c(OC)c(OC)c3C2Cc2cc(OC)c(OC)c(OC)c2)cc(OC)c1OC (stereo not drawn) [DOXACURIUM] | 0
* C[C@]1(O)CC[C@H]2[C@@H]3CCC4=CC(=O)CC[C@]4(C)[C@@]3(F)[C@@H](O)C[C@@]21C [FLUOXYMESTERONE] | 0
* COc1ccc2[nH]c([S+]([O-])Cc3ncc(C)c(OC)c3C)nc2c1 (stereo not drawn) [OMEPRAZOLE] | 1
* Nc1nc2ncc(CNc3ccc(C(=O)N[C@@H](CCC(=O)O)C(=O)O)cc3)nc2c(=O)[nH]1 [FOLIC ACID] | 0
* CC(C)C[C@H]1C(=O)N2CCC[C@H]2[C@]2(O)O[C@](NC(=O)[C@@H]3C=C4c5cccc6[nH]c(Br)c(c56)C[C@H]4N(C)C3)(C(C)C)C(=O)N12 [BROMOCRIPTINE] | 0
* Nc1ccc(C(=O)NCC(=O)O)cc1 [AMINOHIPPURIC ACID] | 0
* CC[C@]1(O)C[C@H]2CN(CCc3c([nH]c4ccccc34)[C@@](C(=O)OC)(c3cc4c(cc3OC)N(C=O)[C@H]3[C@@](O)(C(=O)OC)[C@H](OC(C)=O)[C@]5(CC)C=CCN6CC[C@]43[C@@H]65)C2)C1 [VINCRISTINE] | 0

* * *

- Tested on: Hepatotoxicity
// reported HepSE_jaundice for each item listed
metric: HepSE_jaundice

* Cc1ccc(-c2nc3ccc(C)cn3c2CC(=O)N(C)C)cc1 [ZOLPIDEM] | 0
* C[C@H]1C[C@H]2[C@@H]3CCC4=CC(=O)C=C[C@]4(C)[C@@]3(F)[C@@H](O)C[C@]2(C)[C@@]1(O)C(=O)CCl [CLOBETASOL] | 0
* O=C1CN2Cc3c(ccc(Cl)c3Cl)N=C2N1 [ANAGRELIDE] | 0

* * *

As a worked illustration, we turn to HepSE_jaundice data collected for Hepatotoxicity.
metric: HepSE_jaundice

* COC(=O)C1=C(C)NC(C)=C(C(=O)OC(C)C)C1c1cccc2nonc12 (stereo not drawn) | 0
* CN1CCC(=C2c3ccccc3CC(=O)c3sccc32)CC1 | 0
* Clc1ccc2c(c1)CCc1cccnc1C2=C1CCNCC1 | 0

* * *

As a worked illustration, we turn to HepSE_jaundice data collected for Hepatotoxicity.
metric: HepSE_jaundice

* C[C@@H]1C[C@H]2[C@@H]3CCC4=CC(=O)C=C[C@]4(C)[C@@]3(F)[C@@H](O)C[C@]2(C)[C@@]1(O)C(=O)CO [DEXAMETHASONE] | 0
* C=C[C@H]1C[N@@]2CC[C@H]1C[C@@H]2[C@@H](O)c1ccnc2ccc(OC)cc12 [QUINIDINE] | 1
* C[C@]12CCC(=O)C=C1CC[C@@H]1[C@@H]2[C@@H](O)C[C@@]2(C)[C@H]1CC[C@]2(O)C(=O)CO [HYDROCORTISONE] | 0
* Oc1ccc(C2CNCCc3c2cc(O)c(O)c3Cl)cc1 (configuration not stated) [FENOLDOPAM] | 0
* CC(C)N(CCC(C(N)=O)(c1ccccc1)c1ccccn1)C(C)C (configuration not stated) [DISOPYRAMIDE] | 1
* COC(c1ccccc1)(c1ccccc1)[C@H](Oc1nc(C)cc(C)n1)C(=O)O [AMBRISENTAN] | 0
* CO/N=C(\C(=O)N[C@@H]1C(=O)N2C(C(=O)[O-])=C(C[N+]3(C)CCCC3)CS[C@H]12)c1csc(N)n1 | 0
* COC1=CC(=O)C[C@@H](C)[C@]12Oc1c(Cl)c(OC)cc(OC)c1C2=O [GRISEOFULVIN] | 0
* COc1ccc(C(=O)Nc2ccccc2CCC2CCCCN2C)cc1 (configuration not stated) [ENCAINIDE] | 1
* CC(C)CC(N(C)C)C1(c2ccc(Cl)cc2)CCC1 (configuration not stated) [SIBUTRAMINE] | 0
* C[C@@H]1[C@H](O)[C@@H](C)/C=C/C=C/C=C/C=C/C=C/C=C/C=C/[C@H](O[C@@H]2O[C@H](C)[C@@H](O)[C@H](N)[C@@H]2O)C[C@@H]2O[C@](O)(C[C@@H](O)C[C@@H](O)[C@H](O)CC[C@@H](O)C[C@@H](O)CC(=O)O[C@H]1C)C[C@H](O)[C@H]2C(=O)O [AMPHOTERICIN B] | 1
* CS(=O)(=O)OCCCCOS(C)(=O)=O [BUSULFAN] | 1

* * *

// reported HepSE_hepatitis for each item listed
- Test system: Hepatotoxicity
metric: HepSE_hepatitis

• CC(C)(S)[C@@H](N)C(=O)O = 0
• Oc1ccc2c3c1O[C@H]1[C@@H](O)CC[C@@]4(O)[C@@H](C2)N(CC2CCC2)CC[C@]314 = 0
• O=[N+]([O-])OCC(CO[N+](=O)[O-])O[N+](=O)[O-] = 0
• Cc1c(OCC(F)(F)F)ccnc1C[S+]([O-])c1nc2ccccc2[nH]1 (stereo unspecified) = 0
• COC1=CC(=O)C[C@@H](C)[C@]12Oc1c(Cl)c(OC)cc(OC)c1C2=O = 0
• O=c1[nH]cc(F)c(=O)[nH]1 = 0
• CC(=O)O[C@@]12CO[C@@H]1C[C@H](O)[C@@]1(C)C(=O)[C@H](O)C3=C(C)[C@@H](OC(=O)[C@H](O)[C@@H](NC(=O)OC(C)(C)C)c4ccccc4)C[C@@](O)([C@@H](OC(=O)c4ccccc4)[C@H]21)C3(C)C.O.O.O = 1
• Cc1cnc(NC(=O)C2=C(O)c3ccccc3S(=O)(=O)N2C)s1 = 1
• CC(C)N1CCN(c2ccc(OCC3COC(Cn4cncn4)(c4ccc(Cl)cc4Cl)O3)cc2)CC1 (stereo unspecified) = 0
• CC(C)[C@H](N)C(=O)OCCOCn1cnc2c(=O)[nH]c(N)nc21 = 1
• C[C@H]1[C@H](NC(=O)/C(=N\OC(C)(C)C(=O)O)c2csc(N)n2)C(=O)N1S(=O)(=O)O = 1

* * *

As a worked illustration, we turn to DILI positive/negative data collected for Hepatotoxicity.
metric: DILI positive/negative

• Br.COc1ccc2c(c1)[C@]13CCCC[C@@H]1[C@H](C2)N(C)CC3.O [DEXTROMETHORPHAN HYDROBROMIDE] = 0
• C=C1[C@@H]2CCC3[C@@](CC[C@@H]4[C@H](C(=O)O)C[C@@H](O[C@@H]5O[C@H](CO)[C@@H](OS(=O)(=O)[O-])[C@H](OS(=O)(=O)[O-])[C@H]5OC(=O)CC(C)C)C[C@@]34C)(C2)[C@@H]1O.[K+].[K+] (some centres undefined) [ATRACTYLOSIDE] = 1
• COc1cc2c(c3oc(=O)c4c(c13)CCC4=O)[C@@H]1C=CO[C@@H]1O2 = 1
• CCCCC(CC)COC(=O)C=Cc1ccc(OC)cc1 (centres undefined) [OCTINOXATE] = 1
• CC(N)C(O)c1ccccc1.Cl (centres undefined) [PHENYLPROPANOLAMINE HYDROCHLORIDE] = 0
• Cl.Cl.O=C(CCN1CCN2CCCC2C1)N1c2ccccc2Sc2ccc(Cl)cc21 (centres undefined) [AZACLORZINE HYDROCHLORIDE] = 1
• Nc1ccc(S(=O)(=O)NC(=O)c2ccccc2)cc1 [SULFABENZAMIDE] = 0
• CC(=O)OCC1=C(C(=O)[O-])N2C(=O)[C@@H](NC(=O)CSc3ccncc3)[C@H]2SC1.[Na+] [CEPHAPIRIN SODIUM] = 0
• O=C(O)CCCC[C@@H]1SC[C@@H]2NC(=O)N[C@@H]21 = 0

Values from ChEMBL document CHEMBL1909294
